Parameter MIC: see the listing below.
tested on: VRE; assay: Antibacterial MIC, double-dilution method; type: cell-based; conditions: Enterococcus, strain D, Gram-positive, range 0.5 to 500 μM, read-out: MIC

{"compound": "CC1COc2c(N3CCN(C)CC3)c(F)cc3c(=O)c(C(=O)O)cn1c23 (stereo not shown) [OFX, ofloxacin, reference compound]", "relation": "=", "MIC (µM)": 7.8}
{"compound": "Cl.N=C(N)N/N=C/c1ccc(-c2ccc(/C=N/Nc3ccc(F)cc3F)cc2)cc1 [Compound 7Af, monohydrochloride]", "relation": "=", "MIC (µM)": 3.9}
{"compound": "Cl.N=C(N)N/N=C/c1ccc(-c2ccc(/C=N/Nc3ccc(Cl)cc3)cc2)cc1 [Compound 7Ad, monohydrochloride]", "relation": "=", "MIC (µM)": 3.9}
{"compound": "C/C(=N\\NC(=N)N)c1ccc(-c2ccc(/C(C)=N/NC(=N)N)cc2)cc1.Cl.Cl [Compound 4A, dihydrochloride]", "relation": ">", "MIC (µM)": 500}

* * *

Tested on: B. subtilis 168
Assay: Antibacterial MIC, double-dilution method
Type: cell-based
Details: Bacillus subtilis, strain A, Gram-positive, range 0.5 to 500 μM
Procedure: MIC values were determined against a variety of Gram-positive (strains A-D) and Gram-negative (E-J) bacterial and mycobacterial (K) strains using the double-dilution method, as previously published. Preliminary screening was performed using 500 μM of each compound.
Parameter MIC: see the listing below.

{"compound": "Cl.Cl.N=C(N)N/N=C/c1ccc(-c2cccc(/C=N/NC(=N)N)c2)cc1 [Compound 3B, dihydrochloride]", "MIC": "> 500 µM"}
{"compound": "C/C(=N\\NC(=N)N)c1ccc2c(c1)Cc1cc(/C(C)=N/NC(=N)N)ccc1-2.Cl.Cl [Compound 4F, dihydrochloride]", "MIC": "7.8 µM"}
{"compound": "Cl.N=C(N)N/N=C/c1ccc(-c2ccc(/C=N/Nc3ccc(F)cc3F)cc2)cc1 [Compound 7Af, monohydrochloride]", "MIC": "> 500 µM"}
{"compound": "C/C(=N\\NC(=N)N)c1ccc(/C(C)=N/NC(=N)N)cc1.Cl.Cl [Compound 4G, dihydrochloride]", "MIC": "250 µM"}
{"compound": "NCC[C@H](O)C(=O)N[C@@H]1C[C@H](N)[C@@H](O[C@H]2O[C@H](CN)[C@@H](O)[C@H](O)[C@H]2O)[C@H](O)[C@H]1O[C@H]1O[C@H](CO)[C@@H](O)[C@H](N)[C@H]1O [AMK, amikacin, reference compound]", "MIC": "3.9 to 15.6 µM"}
{"compound": "Cl.N=C(N)N/N=C/c1ccc(-c2ccc(/C=N/Nc3ccc(Cl)cc3)cc2)cc1 [Compound 7Ad, monohydrochloride]", "MIC": "> 500 µM"}

* * *

test system: C. albicans ATCC 1237; assay: Antifungal MIC, CLSI M27-A3 microbroth dilution; type: cell-based, Candida albicans; settings: Candida albicans, ATCC1237, C. albicans ATCC 1237, resistant to FLC, ITC, and VOR; converted from μg/mL; read-out: MIC
Parameter log10 MIC: see the listing below.
parameterMeasured: log10 MIC (log10 of the value in µM)

{"compound": "C/C(=N\\NC(=N)N)c1ccc(Oc2ccc(/C(C)=N/NC(=N)N)cc2)cc1.Cl.Cl [Compound 4E, dihydrochloride]", "parameterMeasured": "log10 MIC", "val": 1.25}
{"compound": "Cl.Cl.N=C(N)N/N=C/c1ccc(-c2ccc(/C=N/NC(=N)N)cc2)cc1 [Compound 3A, dihydrochloride]", "parameterMeasured": "log10 MIC", "val": 1.60}
{"compound": "Cl.N=C(N)N/N=C/c1ccc(-c2ccc(/C=N/Nc3ccccc3Br)cc2)cc1 [Compound 7Ab, monohydrochloride]", "parameterMeasured": "log10 MIC", "val": 0.92}
{"compound": "C/C(=N\\NC(=N)N)c1ccc(Cc2ccc(/C(C)=N/NC(=N)N)cc2)cc1.Cl.Cl [Compound 4C, dihydrochloride]", "parameterMeasured": "log10 MIC", "val": 1.25}
{"compound": "Cl.N=C(N)N/N=C/c1ccc(-c2ccc(/C=N/Nc3ccc(Cl)cc3Cl)cc2)cc1 [Compound 7Ag, hydrochloride]", "parameterMeasured": "log10 MIC", "val": 1.53}
{"compound": "C/C(=N\\NC(=N)N)c1cccc(/C(C)=N/NC(=N)N)c1.Cl.Cl [Compound 4H, dihydrochloride]", "parameterMeasured": "log10 MIC", "val": 1.95}
{"compound": "Cl.N#Cc1ccc(N/N=C/c2ccc(-c3ccc(/C=N/NC(=N)N)cc3)cc2)cc1 [Compound 7Ae, monohydrochloride]", "parameterMeasured": "log10 MIC", "val": 1.57}
{"compound": "Cl.N=C(N)N/N=C/c1ccc(-c2ccc(/C=N/Nc3ccc(Cl)cc3)cc2)cc1 [Compound 7Ad, monohydrochloride]", "parameterMeasured": "log10 MIC", "val": 1.56}

Where these numbers come from: patent US10173968B2
